Listed next: entries and their corresponding Ratio OD(Variant)/OD(WT).
assayed-system: HRgpA-6H (Porphyromonas gingivalis) (UniProt P28784)
test-name: ELISA, Fab FASEBA supernatant on coated HRgpA-6H

Return reported Ratio OD(Variant)/OD(WT); argument: parental mouse (KB001) Fab FASEBA, VL variant H94F (Fab, V domains shown) VH: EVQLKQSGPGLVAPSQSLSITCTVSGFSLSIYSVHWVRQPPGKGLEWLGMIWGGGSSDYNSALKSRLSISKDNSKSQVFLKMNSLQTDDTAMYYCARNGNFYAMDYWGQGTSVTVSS VL: QIVLTQSPAIMSASLGERVTMTCTASSSVSSSFLHWYQQKPGSSPQLWIYSTSNLASGVPARFSGSGSGTSYSLTISSMEAEDAATYYCHQYHFSPYIYTFGGGTKLEIK 0.838 ratio to WT

Return reported Ratio OD(Variant)/OD(WT); argument: parental mouse (KB001) Fab FASEBA, VL variant Y92N (Fab, V domains shown) VH: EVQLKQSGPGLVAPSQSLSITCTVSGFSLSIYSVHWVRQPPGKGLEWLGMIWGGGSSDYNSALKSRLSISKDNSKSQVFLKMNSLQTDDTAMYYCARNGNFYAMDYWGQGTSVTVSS VL: QIVLTQSPAIMSASLGERVTMTCTASSSVSSSFLHWYQQKPGSSPQLWIYSTSNLASGVPARFSGSGSGTSYSLTISSMEAEDAATYYCHQNHHSPYIYTFGGGTKLEIK 0.821 ratio to WT

Return reported Ratio OD(Variant)/OD(WT); argument: parental mouse (KB001) Fab FASEBA, VL variant L55H (Fab, V domains shown) VH: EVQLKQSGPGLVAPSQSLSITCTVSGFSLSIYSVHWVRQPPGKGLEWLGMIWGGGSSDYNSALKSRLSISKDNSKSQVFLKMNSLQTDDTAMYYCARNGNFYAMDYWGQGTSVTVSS VL: QIVLTQSPAIMSASLGERVTMTCTASSSVSSSFLHWYQQKPGSSPQLWIYSTSNHASGVPARFSGSGSGTSYSLTISSMEAEDAATYYCHQYHHSPYIYTFGGGTKLEIK 0.817 ratio to WT

Return reported Ratio OD(Variant)/OD(WT); argument: parental mouse (KB001) Fab FASEBA, VL variant Y97V (Fab, V domains shown) VH: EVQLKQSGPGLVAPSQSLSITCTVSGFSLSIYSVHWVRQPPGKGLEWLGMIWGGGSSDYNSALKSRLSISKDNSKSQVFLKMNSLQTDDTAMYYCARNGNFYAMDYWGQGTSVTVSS VL: QIVLTQSPAIMSASLGERVTMTCTASSSVSSSFLHWYQQKPGSSPQLWIYSTSNLASGVPARFSGSGSGTSYSLTISSMEAEDAATYYCHQYHHSPVIYTFGGGTKLEIK 0.839 ratio to WT

Return reported Ratio OD(Variant)/OD(WT); argument: parental mouse (KB001) Fab FASEBA, VL variant S57N (Fab, V domains shown) VH: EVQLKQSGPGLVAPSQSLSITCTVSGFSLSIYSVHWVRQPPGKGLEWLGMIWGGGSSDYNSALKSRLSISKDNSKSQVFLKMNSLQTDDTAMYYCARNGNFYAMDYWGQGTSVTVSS VL: QIVLTQSPAIMSASLGERVTMTCTASSSVSSSFLHWYQQKPGSSPQLWIYSTSNLANGVPARFSGSGSGTSYSLTISSMEAEDAATYYCHQYHHSPYIYTFGGGTKLEIK 0.997 ratio to WT

Return reported Ratio OD(Variant)/OD(WT); argument: parental mouse (KB001) Fab FASEBA, VL variant H94Y (Fab, V domains shown) VH: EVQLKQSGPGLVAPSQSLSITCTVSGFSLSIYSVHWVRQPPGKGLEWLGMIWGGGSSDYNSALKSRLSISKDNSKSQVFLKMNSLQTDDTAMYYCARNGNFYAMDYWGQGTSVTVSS VL: QIVLTQSPAIMSASLGERVTMTCTASSSVSSSFLHWYQQKPGSSPQLWIYSTSNLASGVPARFSGSGSGTSYSLTISSMEAEDAATYYCHQYHYSPYIYTFGGGTKLEIK 0.942 ratio to WT

Return reported Ratio OD(Variant)/OD(WT); argument: parental mouse (KB001) Fab FASEBA, VL variant S57L (Fab, V domains shown) VH: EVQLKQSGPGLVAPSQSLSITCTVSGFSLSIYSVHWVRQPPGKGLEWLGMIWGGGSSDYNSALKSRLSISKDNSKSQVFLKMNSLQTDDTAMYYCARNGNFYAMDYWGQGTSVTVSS VL: QIVLTQSPAIMSASLGERVTMTCTASSSVSSSFLHWYQQKPGSSPQLWIYSTSNLALGVPARFSGSGSGTSYSLTISSMEAEDAATYYCHQYHHSPYIYTFGGGTKLEIK 0.958 ratio to WT

Return reported Ratio OD(Variant)/OD(WT); argument: parental mouse (KB001) Fab FASEBA, VL variant Y97L (Fab, V domains shown) VH: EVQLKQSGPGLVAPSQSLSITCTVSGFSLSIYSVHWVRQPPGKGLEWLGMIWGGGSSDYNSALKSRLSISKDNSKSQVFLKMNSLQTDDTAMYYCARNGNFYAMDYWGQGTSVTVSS VL: QIVLTQSPAIMSASLGERVTMTCTASSSVSSSFLHWYQQKPGSSPQLWIYSTSNLASGVPARFSGSGSGTSYSLTISSMEAEDAATYYCHQYHHSPLIYTFGGGTKLEIK 0.937 ratio to WT

Return reported Ratio OD(Variant)/OD(WT); argument: parental mouse (KB001) Fab FASEBA, VL variant L55Q (Fab, V domains shown) VH: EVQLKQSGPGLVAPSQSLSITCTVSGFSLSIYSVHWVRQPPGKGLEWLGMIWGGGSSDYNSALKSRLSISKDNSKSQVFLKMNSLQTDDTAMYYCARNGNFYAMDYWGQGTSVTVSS VL: QIVLTQSPAIMSASLGERVTMTCTASSSVSSSFLHWYQQKPGSSPQLWIYSTSNQASGVPARFSGSGSGTSYSLTISSMEAEDAATYYCHQYHHSPYIYTFGGGTKLEIK 0.845 ratio to WT

Return reported Ratio OD(Variant)/OD(WT); argument: parental mouse (KB001) Fab FASEBA, VL variant L55S (Fab, V domains shown) VH: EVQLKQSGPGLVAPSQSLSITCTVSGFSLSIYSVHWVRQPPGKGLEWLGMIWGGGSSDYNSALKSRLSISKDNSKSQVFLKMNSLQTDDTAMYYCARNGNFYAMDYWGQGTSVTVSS VL: QIVLTQSPAIMSASLGERVTMTCTASSSVSSSFLHWYQQKPGSSPQLWIYSTSNSASGVPARFSGSGSGTSYSLTISSMEAEDAATYYCHQYHHSPYIYTFGGGTKLEIK 0.836 ratio to WT
